Reference for the values: patent US12187722B2

biological target: UniProt Q15562; test: In vitro palmitoylation (TEAD2 autopalmitoylation, streptavidin blot); assay type: biochemical; conditions: compound at 10 μM; Table 2
Sequence (Q15562 whole entry): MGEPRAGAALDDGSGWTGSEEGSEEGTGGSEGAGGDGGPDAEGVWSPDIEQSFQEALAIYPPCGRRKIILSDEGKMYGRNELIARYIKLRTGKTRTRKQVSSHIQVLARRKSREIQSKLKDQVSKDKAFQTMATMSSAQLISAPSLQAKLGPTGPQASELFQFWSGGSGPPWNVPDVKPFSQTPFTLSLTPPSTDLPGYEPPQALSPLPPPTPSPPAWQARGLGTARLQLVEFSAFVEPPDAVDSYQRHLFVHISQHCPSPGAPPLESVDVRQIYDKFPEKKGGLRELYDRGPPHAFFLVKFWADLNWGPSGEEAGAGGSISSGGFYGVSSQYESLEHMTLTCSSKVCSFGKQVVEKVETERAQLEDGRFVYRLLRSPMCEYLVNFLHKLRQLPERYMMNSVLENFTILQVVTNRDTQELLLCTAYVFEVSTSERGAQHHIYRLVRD
readout_name: inhibition at 10 µM (%)

>>> df
                                   compound  test_value
0  O=C(O)C1CCCC1Nc1ccc(Nc2ccc(C34CC5CC(CC(C5)C3)C4)cc2Cl)cc1 (stereo not shown) [Compound 39]          59
1  CC(C)c1ccccc1-c1ccc(NC(=O)c2cccc(Nc3ccccc3C(=O)O)c2)cc1 [Compound 224]          81
2  O=C(O)c1cccnc1CN1CCCC(Nc2ccc(C34CC5CC(CC(C5)C3)C4)cc2Cl)C1 (stereo not shown) [Compound 141]          95
3  CC12CC3CC(C)(C1)CC(c1ccc(Nc4ccc(Nc5cccc(C(=O)O)n5)cc4)cc1)(C3)C2 [Compound 201]          43
4  CN(C(=O)c1ccc(Nc2ccccc2C(=O)O)cc1)c1ccc(C23CC4CC(CC(C4)C2)C3)cc1 [Compound 192]          99
5  O=C(O)c1ccccc1NS(=O)(=O)c1ccc(Nc2ccc(C34CC5CC(CC(C5)C3)C4)cc2Cl)cc1 [Compound 223]         100
6  CC(C)(C)OC(=O)N(c1cnc(Nc2ccc(C34CC5CC(CC(C5)C3)C4)cc2Cl)cn1)c1ccccc1C(=O)O [Compound 74]          31

====

molecular target: UniProtKB Q15562; assay: In vitro palmitoylation (TEAD2 autopalmitoylation, streptavidin blot); type: biochemical; details: compound at 10 μM; Table 2
readout_name: inhibition at 10 µM (%)

                                    compound  target_under_test         readout_name  quantity_unit  test_value
 0  CN(c1ccc(C23CC4CC(CC(C4)C2)C3)cc1)c1cc(N(C)c2ncccc2C(=O)O)cc(C(F)(F)F)c1 [Compound 152]   UniProtKB Q15562  inhibition at 10 µM              %         102
 1  CN(c1ccc(N(C)c2ccccc2C(=O)O)cc1)c1cccc(C(=O)NC23CC4CC(CC(C4)C2)C3)c1 [Compound 233]   UniProtKB Q15562  inhibition at 10 µM              %           9
 2  O=C(Nc1ccc(Nc2cccc(C(=O)O)n2)cc1)Nc1ccc(C23CC4CC(CC(C4)C2)C3)cc1 [Compound 182]   UniProtKB Q15562  inhibition at 10 µM              %          54
 3  O=C(Nc1ncccc1C(=O)O)c1ccc(Nc2ccc(C34CC5CC(CC(C5)C3)C4)cc2)cc1 [Compound 217]   UniProtKB Q15562  inhibition at 10 µM              %          55
 4  CC(C)COc1ccc(Nc2ccc(N(C)c3ccc(C45CC6CC(CC(C6)C4)C5)cc3)cc2)c(C(=O)O)c1 [CP-453]   UniProtKB Q15562  inhibition at 10 µM              %           0
 5  O=C(Nc1ccc(C23CC4CC(CC(C4)C2)C3)cc1Cl)c1ccc(Nc2ncccc2C(=O)O)cc1 [Compound 183]   UniProtKB Q15562  inhibition at 10 µM              %         100
 6  O=C(O)c1cccnc1Nc1ccc(Nc2ccc(C34CC5CC(CC(C5)C3)C4)cc2Cl)nc1 [Compound 91]   UniProtKB Q15562  inhibition at 10 µM              %          97
 7  O=C(O)c1cccnc1Nc1ncn(Cc2ccc(C34CC5CC(CC(C5)C3)C4)cc2Cl)n1 [Compound 129]   UniProtKB Q15562  inhibition at 10 µM              %          41
 8  CNC(=O)c1ccccc1Nc1ccc(Nc2ccc(C34CC5CC(CC(C5)C3)C4)cc2Cl)cc1 [compound 276]   UniProtKB Q15562  inhibition at 10 µM              %          52
 9  O=C(O)c1cccnc1Nc1cnn(Cc2ccc(C34CC5CC(CC(C5)C3)C4)cc2Cl)c1 [Compound 112]   UniProtKB Q15562  inhibition at 10 µM              %         100
10  CCCCN(c1ccccc1)c1ccc(NC(=O)c2cccc(Nc3ncccc3C(=O)O)c2)cc1 [Compound 266]   UniProtKB Q15562  inhibition at 10 µM              %          81
11  CN(c1ccc(Nc2ccc(C34CC5CC(CC(C5)C3)C4)cc2)cc1)c1ccccc1C(=O)O [Compound 99]   UniProtKB Q15562  inhibition at 10 µM              %          85
12  Cc1ccccc1-c1ccc(Nc2ccc(Nc3ccccc3C(=O)O)cc2)c(Cl)c1 [Compound 51]   UniProtKB Q15562  inhibition at 10 µM              %          79
13  CC(C)(C)OC(=O)NC(Cc1ccc(Nc2ccc(C34CC5CC(CC(C5)C3)C4)cc2Cl)cc1)C(=O)O (stereo not drawn) [Compound 94]   UniProtKB Q15562  inhibition at 10 µM              %          91
14  COC(=O)c1cccnc1Nc1ccc(Nc2ccc(C34CC5CC(CC(C5)C3)C4)cc2Cl)cc1 [Compound 17]   UniProtKB Q15562  inhibition at 10 µM              %           7
15  O=C(O)c1cccc(Nc2cc(C(F)(F)F)cc3[nH]c4ccc(C56CC7CC(CC(C7)C5)C6)cc4c23)n1 [Compound 154]   UniProtKB Q15562  inhibition at 10 µM              %          58
16  O=C1CC[n+]2ccccc2N1c1ccc(Nc2ccc(C34CC5CC(CC(C5)C3)C4)cc2Cl)cc1 [Compound 11]   UniProtKB Q15562  inhibition at 10 µM              %           0
17  O=C(Nc1ccccc1C(=O)O)c1ccc(Nc2ccc(C34CC5CC(CC(C5)C3)C4)cc2Br)cc1 [Compound 228]   UniProtKB Q15562  inhibition at 10 µM              %          89
18  CN(c1ccc(C23CC4CC(CC(C4)C2)C3)cc1)c1ccc(N(C)c2ncccc2C(=O)O)cc1C(F)(F)F [Compound 156]   UniProtKB Q15562  inhibition at 10 µM              %          92
19  CC(C)c1ccccc1-c1ccc(NC(=O)C2CN(CC(=O)O)C2)cc1 [Compound 87]   UniProtKB Q15562  inhibition at 10 µM              %           4
20  Cn1c(-c2cccc(Nc3ccc(C45CC6CC(CC(C6)C4)C5)cc3)c2)nc2cccc(C(=O)O)c21 [Compound 210]   UniProtKB Q15562  inhibition at 10 µM              %         100
21  O=C(O)c1ccccc1Nc1ccc(S(=O)(=O)Nc2ccc(C34CC5CC(CC(C5)C3)C4)cc2Cl)cc1 [Compound 260]   UniProtKB Q15562  inhibition at 10 µM              %          71
22  O=C(O)C1CCNCC1Nc1ccc(Nc2ccc(C34CC5CC(CC(C5)C3)C4)cc2Cl)cc1 (stereo not drawn) [Compound 88]   UniProtKB Q15562  inhibition at 10 µM              %          12
23  O=C(Nc1ccc(Nc2ncccc2C(=O)O)cc1)Nc1ccc(C23CC4CC(CC(C4)C2)C3)cc1 [Compound 180]   UniProtKB Q15562  inhibition at 10 µM              %          81
24  O=C(O)c1cccnc1Cc1ccc(Nc2ccc(C34CC5CC(CC(C5)C3)C4)cc2Cl)cc1 [Compound 122]   UniProtKB Q15562  inhibition at 10 µM              %          95
25  CC12CC3CC(C)(C1)CC(c1ccc(NC(=O)c4ccc(Nc5cccc(C(=O)O)n5)cc4)cc1)(C3)C2 [Compound 227]   UniProtKB Q15562  inhibition at 10 µM              %          58
26  O=C(O)c1ccccc1Nc1ccc(Nc2ccc(C34CC5CC(CC(C5)C3)C4)cc2)nc1 [Compound 34]   UniProtKB Q15562  inhibition at 10 µM              %          14
27  O=C(O)c1cccnc1N1CCN(Cc2ccc(C34CC5CC(CC(C5)C3)C4)cc2Cl)CC1 [Compound 106]   UniProtKB Q15562  inhibition at 10 µM              %           0
28  CC12CC3CC(C)(C1)CC(c1ccc(NS(=O)(=O)c4ccc(Nc5ncccc5C(=O)O)cc4)c(Cl)c1)(C3)C2 [Compound 265]   UniProtKB Q15562  inhibition at 10 µM              %          78
29  CN(c1ccc(Nc2ncccc2C(=O)O)cc1)c1ccc(C23CC4CC(CC(C4)C2)C3)cc1Cl [Compound 142]   UniProtKB Q15562  inhibition at 10 µM              %          65
